Recorded below: Ki, system D(2) dopamine receptor (Rattus norvegicus).
endpoint-label: Ki

> print(dat)
                              smiles.data  endpoint.label  result
1   C=CCN1CCc2cccc3c2[C@H]1Cc1cccc(O)c1-3              Ki    2 nM
2  C=CCN1CCc2cccc3c2[C@@H]1Cc1cccc(O)c1-3              Ki  155 nM

###

test-system: UniProtKB P18901
Sequence (P18901 whole entry): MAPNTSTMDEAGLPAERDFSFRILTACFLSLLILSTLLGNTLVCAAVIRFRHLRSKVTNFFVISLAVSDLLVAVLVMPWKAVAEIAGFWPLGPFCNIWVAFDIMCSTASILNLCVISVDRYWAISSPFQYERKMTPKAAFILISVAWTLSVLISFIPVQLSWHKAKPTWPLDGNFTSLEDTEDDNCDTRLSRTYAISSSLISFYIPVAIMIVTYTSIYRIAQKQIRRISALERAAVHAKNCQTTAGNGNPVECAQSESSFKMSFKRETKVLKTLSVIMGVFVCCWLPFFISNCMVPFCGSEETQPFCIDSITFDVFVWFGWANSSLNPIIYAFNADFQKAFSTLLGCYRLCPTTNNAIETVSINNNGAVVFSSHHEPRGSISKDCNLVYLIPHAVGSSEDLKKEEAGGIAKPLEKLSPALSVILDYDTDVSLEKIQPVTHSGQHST
pKi: −log10 of the molar value.
Each entry below carries its reported pKi.
endpoint-label: pKi

> print(dat)
                              smiles.data  endpoint.label  inequality.symbol  number
1  C=CCN1CCc2cccc3c2[C@@H]1Cc1cccc(O)c1-3             pKi                  <    5.00
2   C=CCN1CCc2cccc3c2[C@H]1Cc1cccc(O)c1-3             pKi                  =    6.34
